- Tested on: Trypanosoma brucei
- test.protocol: Inhibition of PTR1 in Trypanosoma brucei bloodstream forms assessed as potentiation of methotrexate-induced parasitic cell growth inhibition at 10 uM measured after 72 hrs by resazurin-based fluorescence assay (reference value: 19 +/- 6%)
Definition: the class of an entry is the range in category 1 = under 60%, category 2 = from 60% up to 80%, category 3 = 80% and over that contains its growth inhibition (GI).

1) Nc1nc2ccc(C(=O)NCc3ccccc3)cc2s1	category 1
2) Nc1nc2ccc(SCc3ccc(Cl)c(Cl)c3)cc2s1	category 2
3) Nc1nc2ccc(OCc3ccc(Cl)c(Cl)c3)cc2s1	category 3
4) COC(=O)c1ccc(CSc2ccc3nc(N)sc3c2)cc1	category 2
5) Nc1nc2ccc(SC(F)(F)F)cc2s1	category 1
6) N#Cc1ccc(CSc2ccc3nc(N)sc3c2)cc1	category 2
7) COC(=O)C1CCN(C(=O)c2ccc(CSc3ccc4nc(N)sc4c3)cc2)CC1	category 3
8) N#Cc1ccc(CS(=O)(=O)c2ccc3nc(N)sc3c2)cc1	category 1

---

- test.system: Voltage-gated inwardly rectifying potassium channel KCNH2 (Homo sapiens, UniProt Q12809)
- Sequence (Q12809 whole entry): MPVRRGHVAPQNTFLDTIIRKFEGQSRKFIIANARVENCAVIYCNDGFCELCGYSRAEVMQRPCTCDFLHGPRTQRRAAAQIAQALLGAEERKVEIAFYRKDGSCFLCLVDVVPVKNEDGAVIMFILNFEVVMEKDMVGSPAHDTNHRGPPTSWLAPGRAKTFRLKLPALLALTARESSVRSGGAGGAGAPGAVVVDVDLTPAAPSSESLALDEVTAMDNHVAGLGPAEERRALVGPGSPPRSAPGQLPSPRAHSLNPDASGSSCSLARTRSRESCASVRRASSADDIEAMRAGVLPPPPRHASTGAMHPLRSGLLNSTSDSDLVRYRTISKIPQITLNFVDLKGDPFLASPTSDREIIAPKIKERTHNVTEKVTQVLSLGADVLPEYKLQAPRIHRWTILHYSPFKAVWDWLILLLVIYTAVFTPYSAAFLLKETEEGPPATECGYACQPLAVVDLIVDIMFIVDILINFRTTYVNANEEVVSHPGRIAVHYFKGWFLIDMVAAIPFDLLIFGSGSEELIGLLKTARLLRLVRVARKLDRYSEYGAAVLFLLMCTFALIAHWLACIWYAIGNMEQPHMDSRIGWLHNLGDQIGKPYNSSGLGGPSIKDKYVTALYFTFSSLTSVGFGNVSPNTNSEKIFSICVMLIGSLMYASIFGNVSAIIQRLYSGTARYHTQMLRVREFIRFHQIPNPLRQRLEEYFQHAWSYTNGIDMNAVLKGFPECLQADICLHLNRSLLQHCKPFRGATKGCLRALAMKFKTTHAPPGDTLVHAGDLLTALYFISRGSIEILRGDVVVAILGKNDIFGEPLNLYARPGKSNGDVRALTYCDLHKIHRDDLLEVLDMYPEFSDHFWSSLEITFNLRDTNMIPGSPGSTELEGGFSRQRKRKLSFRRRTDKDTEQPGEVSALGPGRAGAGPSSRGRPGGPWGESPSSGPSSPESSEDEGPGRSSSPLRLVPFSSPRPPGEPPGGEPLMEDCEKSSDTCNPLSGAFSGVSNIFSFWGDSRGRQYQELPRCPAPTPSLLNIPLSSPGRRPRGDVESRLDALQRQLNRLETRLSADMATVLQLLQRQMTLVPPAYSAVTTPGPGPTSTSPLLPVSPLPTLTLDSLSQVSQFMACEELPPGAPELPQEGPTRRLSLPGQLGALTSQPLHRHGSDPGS
quantity: IC50

1) Nc1nc2c(C(=O)NCc3ccc(Cl)c(Cl)c3)cc(O)c(O)c2s1	> 25 µM
2) COC(=O)C1CCN(C(=O)c2ccc(COc3ccc4nc(N)sc4c3)cc2)CC1	> 25 µM
3) Nc1nc2ccc(SCc3ccccc3)cc2s1	> 25 µM
4) Nc1nc2ccc(SCc3ccc(Cl)c(Cl)c3)cc2s1	> 25 µM
5) Nc1nc2ccc(C(=O)NCc3ccccc3N)cc2s1	> 25 µM
6) COc1ccc2nc(N)sc2c1	< 10 µM

---

- Tested on: Trypanosoma brucei
- test.protocol: Growth inhibition of Trypanosoma brucei bloodstream forms at 10 uM measured after 72 hrs by resazurin-based fluorescence assay relative to control
- Assay type: organism-based
- test.parameters: Trypanosoma brucei, read-out: GI
Short version: inhibition at 10 µM at least 20% is true (1), less is false (0).

1) N#Cc1ccc(CNC(=O)c2ccc3nc(N)sc3c2)cc1	false (0)
2) CSc1ccc2nc(N)sc2c1	false (0)
3) COC(=O)C1CCN(C(=O)c2ccc(COc3ccc4nc(N)sc4c3)cc2)CC1	true (1)
4) Nc1nc2ccc(C(=O)NCc3ccc(C(=O)NCc4ccccc4)cc3)cc2s1	true (1)
5) Nc1nc2ccc(S(=O)(=O)Cc3ccccc3)cc2s1	false (0)
6) Nc1nc2ccc(C(=O)NCCc3c[nH]c4ccccc34)cc2s1	true (1)
7) Nc1nc2c(C(=O)NCc3ccc(Cl)c(Cl)c3)cc(O)c(O)c2s1	false (0)
8) Nc1nc2ccc(C(=O)NCc3ccccc3)cc2s1	true (1)
9) COc1cc(CNC(=O)c2ccc3nc(N)sc3c2)cc(OC)c1OC	false (0)
10) Nc1nc2ccc(C(=O)NC(c3ccccc3)c3ccccc3)cc2s1	false (0)
11) Nc1nc2c(O)cc(C(=O)NCc3ccccc3)cc2s1	false (0)
12) Nc1nc2ccc(C(=O)N(Cc3ccccc3)Cc3ccc(Cl)c(Cl)c3)cc2s1	true (1)
13) CS(=O)(=O)c1ccc2nc(N)sc2c1	false (0)
14) COC(=O)c1ccc(CS(=O)(=O)c2ccc3nc(N)sc3c2)cc1	false (0)
15) Nc1nc2c(C(=O)NCc3ccccc3)cc(O)c(O)c2s1	false (0)
16) Nc1nc2ccc(SCc3ccccc3)cc2s1	false (0)
17) Nc1nc2ccc(S(=O)(=O)Cc3ccc(Cl)c(Cl)c3)cc2s1	true (1)
18) COC(=O)C1CCN(C(=O)c2ccc3nc(N)sc3c2)CC1	false (0)
19) Nc1nc2ccc(C(=O)NCc3ccc(Cl)c(Cl)c3)cc2s1	false (0)
20) COc1ccc2nc(N)sc2c1	false (0)
21) COC(=O)C1CCN(C(=O)c2ccc(CNC(=O)c3ccc4nc(N)sc4c3)cc2)CC1	true (1)
22) Nc1nc2ccc(C(=O)NCc3ccccc3N)cc2s1	false (0)
23) Nc1nc2ccc(C(=O)N(CCO)Cc3ccccc3)cc2s1	false (0)

The measurements presented in this section are drawn from ChEMBL document CHEMBL4387708.
